Tested on: Cryptococcus neoformans
condition summary: Concentration 20 uM; ASSAY_TEST Inhibition of Fungal Growth; detection method Resazurin; Absorption (OD600-OD570); plate type 384well; NBS; CORNING #3640
Description: Antifungal activity against Cryptococcus neoformans H99 ATCC 208821 (CO-ADD:FG_002); MIC in YNB media using NBS plates, by Resazurin OD(600-570)
Entries with a potency or affinity are not part of this list.

smiles entry: CC(C)NCC(=O)Nc1cccc(C(=O)Nc2cccc(C(F)(F)F)c2)c1
Inhibition: -11.79%

smiles entry: CC(C)(C(=O)Nc1ccc(F)cc1)n1cc(-c2ccccc2F)cn1
Inhibition: -7.47%

smiles entry: Cc1c[nH]c(CCNC(=O)c2cc(-c3ccc(Cl)cc3)cs2)n1
Inhibition: -12.96%

smiles entry: CN1CCN(S(=O)(=O)c2ccc(-c3ccc4c(Nc5ccc6nn[nH]c6c5)ccnc4c3)cc2)CC1
Inhibition: -7.38%

smiles entry: FC(F)(F)c1cccc(-c2nc3c(NCc4ccncc4)nccc3[nH]2)c1
Inhibition: 5.66%

smiles entry: COc1cccn2c(C(=O)N3CCCCC3)c(C(F)(F)F)nc12
Inhibition: -6.15%

smiles entry: COc1ccc(N(CCc2cccc(C)n2)C(=O)C2CCCCC2)cc1
Inhibition: -4.98%

smiles entry: Cc1cccc(-c2nc(Nc3ccncn3)c3sccc3n2)n1
Inhibition: 61.44%

smiles entry: CC(=O)O.CC(=O)O.Nc1ncnc2c1ncn2[C@@H]1O[C@H](COS(=O)(=O)NC(=O)c2ccccc2O)[C@@H](O)[C@H]1O
Inhibition: -8.69%

smiles entry: O=C(Nc1ccc(F)c(-c2nc3cc(-c4ccccc4)cnc3[nH]2)c1)N1CCCC1
Inhibition: -3.95%

----------
System: Cryptococcus neoformans
condition summary: Concentration 20 uM; ASSAY_TEST Inhibition of Fungal Growth; detection method Resazurin; Absorption (OD600-OD570); plate type 384well; NBS; CORNING #3640
Results with a measured potency or affinity are listed apart.
property: Inhibition (%)

compound: O=C(NCc1nnc2n1CCCCC2)c1ccc(-c2ccc(F)cc2)o1
test target: Cryptococcus neoformans
property: Inhibition
unit label: %
observed: 6.1

compound: CC(C)(C)c1ccc(N[C@@H]2CCCC[C@H]2NC(=O)c2ccco2)cc1
test target: Cryptococcus neoformans
property: Inhibition
unit label: %
observed: -2.08

compound: Cc1cc(C(=O)Nc2ccc(-c3ccccc3)cc2)no1
test target: Cryptococcus neoformans
property: Inhibition
unit label: %
observed: -3.33

compound: CC1CC1C(=O)NC1CCN(CC2(c3ccccc3)CCCCC2)CC1 (stereo unspecified)
test target: Cryptococcus neoformans
property: Inhibition
unit label: %
observed: -6.72

compound: O=C(Cn1ccnc1[N+](=O)[O-])NCc1ccccc1
test target: Cryptococcus neoformans
property: Inhibition
unit label: %
observed: -2.09

compound: CCNC(=O)C(C)Nc1nc(-c2cccnc2)nc2sc(C)c(C)c12 (stereo unspecified)
test target: Cryptococcus neoformans
property: Inhibition
unit label: %
observed: -4.41

compound: CN1CCCN(C(c2ccccc2)c2ccc(Cl)cc2)CC1 (stereo unspecified)
test target: Cryptococcus neoformans
property: Inhibition
unit label: %
observed: -6.27

compound: Clc1ccc(CN2CCN(C3=NCCN3)CC2)cc1Cl
test target: Cryptococcus neoformans
property: Inhibition
unit label: %
observed: -10.37

compound: CCCS(=O)(=O)N1CCC(CO)(Cc2ccccc2C(F)(F)F)CC1
test target: Cryptococcus neoformans
property: Inhibition
unit label: %
observed: -2.93

compound: COc1ccccc1OCCCCn1c(C2CC2)nc2ccccc21
test target: Cryptococcus neoformans
property: Inhibition
unit label: %
observed: -4.4

compound: CCc1nc2ccccc2n1CC(O)COc1cc(C)ccc1Cl (stereo unspecified)
test target: Cryptococcus neoformans
property: Inhibition
unit label: %
observed: -20.36

The values you see were collected from ChEMBL document CHEMBL4513149.
